- system: rat neuropeptide FF receptor (NPFF1) (rat, UniProt Q9EP86 1-432)
- Sequence (Q9EP86 whole entry): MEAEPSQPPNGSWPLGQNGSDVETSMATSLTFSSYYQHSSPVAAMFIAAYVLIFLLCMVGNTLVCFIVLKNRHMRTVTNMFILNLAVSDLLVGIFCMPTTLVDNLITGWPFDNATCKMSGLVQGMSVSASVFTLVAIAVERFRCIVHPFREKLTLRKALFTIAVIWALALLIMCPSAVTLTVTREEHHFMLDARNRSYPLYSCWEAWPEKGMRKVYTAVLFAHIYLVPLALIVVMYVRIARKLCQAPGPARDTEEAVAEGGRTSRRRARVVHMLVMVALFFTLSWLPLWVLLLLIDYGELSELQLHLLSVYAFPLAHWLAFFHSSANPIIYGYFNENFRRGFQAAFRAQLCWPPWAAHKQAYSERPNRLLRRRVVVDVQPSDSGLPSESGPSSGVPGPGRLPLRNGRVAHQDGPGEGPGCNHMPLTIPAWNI
- assay_comment: competition with [125I]D-Tyr-NPFF, membranes of COS-7 cells with rat NPFF1
No end group written: not given here.
Param threshold (8) applies to pKi; output T when value >= threshold, F when value < threshold.

# binder, assigned_class
measured = [
    ("DYMGWMDF (peptide, UniProt P06307 96-103, looked up, species assumed, ends and bridges not checked) [CCK8]", "F"),
    ("APSEPHHPGDQATQDQLAQYYSDLYQYITFVTRPRF (not fully specified; ends and bridges not checked, also called fPP) [Frog pancreatic polypeptide (frog PP) (Rana Temporaria)]", "F"),
    ("MPRVRSLFQEQEEPEPGMEEAGEMEQKQLQ (peptide, UniProt Q13519 98-127, looked up, species assumed, Nocistatin) [nocistatin]", "F"),
    ("FMRF-NH2 [FMRF amide]", "T"),
]
